experiment: Acute toxicity / acute tolerance after i.v. injection in mice (Experiment A); format: in vivo, mice (male and female SPF-mice, stock NMRI); details: mouse, in vivo, iv, 504.6 mg/kg, female mice; 504.6 mg/kg i.v.; N-methyl glucamine salt; 14 days observation; read-out: death rate %
metricName: mortality at 336 h (%)
The reply should contain only the number, in %.

Noted for COc1cc(C2Oc3c(O)cc(CC(=O)C(=O)c4c(O)cc(O)cc4O)cc3C2CO)ccc1O (stereo not shown) : its mortality at 336 h reads 100

----------
experiment: Acute toxicity / acute tolerance after i.v. injection in mice (Experiment A); type: in vivo, mice (male and female SPF-mice, stock NMRI); conditions: mouse, in vivo, iv, male mice; i.v.; given as N-methyl glucamine salt, expressed as Compound; read-out: DL50, converted to the free compound
metricName: LD50 at 336 h

Recorded result, COc1cc(C2Oc3c(O)cc(CC(=O)C(=O)c4c(O)cc(O)cc4O)cc3C2CO)ccc1O (stereo not shown) , LD50 at 336 h: 295 mg/kg

----------
test: Acute toxicity / acute tolerance after i.v. injection in mice (Experiment A); format: in vivo, mice (male and female SPF-mice, stock NMRI); conditions: mouse, in vivo, iv, 424.3 mg/kg, male mice; 424.3 mg/kg i.v.; N-methyl glucamine salt; 14 days observation; read-out: death rate %
metricName: mortality at 336 h (%)
Reply numerically in %, unit not repeated.

Reported mortality at 336 h ( COc1cc(C2Oc3c(O)cc(CC(=O)C(=O)c4c(O)cc(O)cc4O)cc3C2CO)ccc1O (stereo not shown) ) = 40

----------
assay: Acute toxicity / acute tolerance after i.v. injection in mice (Experiment A); format: in vivo, mice (male and female SPF-mice, stock NMRI); settings: mouse, in vivo, iv, 600 mg/kg, female mice; 600 mg/kg i.v.; N-methyl glucamine salt; 14 days observation; read-out: death rate %
metricName: mortality at 336 h (%)
Lab book: enter the figure in %, no units written.

Documented mortality at 336 h of COc1cc(C2Oc3c(O)cc(CC(=O)C(=O)c4c(O)cc(O)cc4O)cc3C2CO)ccc1O (stereo not shown) : 100

----------
assay: Acute toxicity / acute tolerance after i.v. injection in mice (Experiment A); assay type: in vivo, mice (male and female SPF-mice, stock NMRI); details: mouse, in vivo, iv, 600 mg/kg, male mice; 600 mg/kg i.v.; N-methyl glucamine salt; 14 days observation; read-out: death rate %
metricName: mortality at 336 h (%)
Answer format: numeric, % implied, no suffix.

// sample COc1cc(C2Oc3c(O)cc(CC(=O)C(=O)c4c(O)cc(O)cc4O)cc3C2CO)ccc1O (stereo not shown) [Compound C] , its mortality at 336 h was 100
